system.under.test: PI3Kdelta (Homo sapiens (Human), UniProt O00329)
Sequence (O00329 whole entry, canonical isoform): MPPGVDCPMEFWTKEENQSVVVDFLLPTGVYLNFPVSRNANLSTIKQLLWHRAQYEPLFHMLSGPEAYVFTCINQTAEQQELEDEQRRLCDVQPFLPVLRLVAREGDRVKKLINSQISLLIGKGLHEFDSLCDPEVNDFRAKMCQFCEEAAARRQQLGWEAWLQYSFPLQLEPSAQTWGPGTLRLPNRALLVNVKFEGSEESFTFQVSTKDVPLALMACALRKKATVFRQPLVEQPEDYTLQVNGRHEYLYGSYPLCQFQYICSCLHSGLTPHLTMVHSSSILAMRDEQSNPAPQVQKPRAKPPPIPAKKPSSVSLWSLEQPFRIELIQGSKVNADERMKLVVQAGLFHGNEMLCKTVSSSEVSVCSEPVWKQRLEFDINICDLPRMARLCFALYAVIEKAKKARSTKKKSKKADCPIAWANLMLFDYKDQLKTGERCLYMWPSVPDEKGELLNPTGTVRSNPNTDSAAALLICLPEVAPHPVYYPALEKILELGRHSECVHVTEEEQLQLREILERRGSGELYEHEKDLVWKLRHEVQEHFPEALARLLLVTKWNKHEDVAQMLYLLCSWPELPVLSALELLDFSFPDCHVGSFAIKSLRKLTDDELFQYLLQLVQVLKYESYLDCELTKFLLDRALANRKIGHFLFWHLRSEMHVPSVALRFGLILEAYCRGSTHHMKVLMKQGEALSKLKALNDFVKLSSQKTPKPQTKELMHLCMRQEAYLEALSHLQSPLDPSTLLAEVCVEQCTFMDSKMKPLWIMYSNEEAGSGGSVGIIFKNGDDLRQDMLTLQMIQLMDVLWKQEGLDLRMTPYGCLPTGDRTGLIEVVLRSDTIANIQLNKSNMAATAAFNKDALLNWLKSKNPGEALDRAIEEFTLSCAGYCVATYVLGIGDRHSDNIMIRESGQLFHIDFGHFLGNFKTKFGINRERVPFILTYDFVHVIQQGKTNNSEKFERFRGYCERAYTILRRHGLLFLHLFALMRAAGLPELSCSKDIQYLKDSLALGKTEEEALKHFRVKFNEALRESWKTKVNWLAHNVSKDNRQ
Sequence (P27986 whole entry partner, canonical isoform): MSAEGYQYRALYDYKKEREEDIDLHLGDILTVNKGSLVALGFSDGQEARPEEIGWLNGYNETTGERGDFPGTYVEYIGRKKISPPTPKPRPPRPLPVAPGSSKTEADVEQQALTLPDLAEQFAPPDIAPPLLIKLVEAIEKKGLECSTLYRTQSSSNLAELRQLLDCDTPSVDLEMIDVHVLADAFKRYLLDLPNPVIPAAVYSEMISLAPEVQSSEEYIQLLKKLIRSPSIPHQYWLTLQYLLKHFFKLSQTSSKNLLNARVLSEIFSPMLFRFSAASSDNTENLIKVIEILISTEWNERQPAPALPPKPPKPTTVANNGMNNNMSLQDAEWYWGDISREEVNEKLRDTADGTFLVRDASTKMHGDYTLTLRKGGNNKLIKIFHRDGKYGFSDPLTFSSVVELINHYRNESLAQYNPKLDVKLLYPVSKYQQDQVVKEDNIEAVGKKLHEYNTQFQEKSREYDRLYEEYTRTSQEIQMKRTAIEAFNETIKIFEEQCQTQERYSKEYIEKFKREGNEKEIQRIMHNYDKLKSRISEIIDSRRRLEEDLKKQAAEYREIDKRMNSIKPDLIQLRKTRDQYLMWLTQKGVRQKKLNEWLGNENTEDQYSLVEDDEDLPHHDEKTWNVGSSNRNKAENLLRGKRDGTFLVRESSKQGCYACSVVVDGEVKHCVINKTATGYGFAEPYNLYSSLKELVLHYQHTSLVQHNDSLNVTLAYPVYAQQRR
assay.text: HTRF PI3K biochemical assay, delta isoform
reported.conditions: 0.3 nM enzyme, 100 uM ATP, 5 uM PIP2, form screened per table
measure.name: IC50 (nM)
Kindly provide the numeric value in nM only, without the unit symbol.

Sample answers from the record:
CCOC(=O)c1cnc(N2CCN(C(=O)C3CC3)[C@H](C)C2)nc1-c1cnn(C)c1 = 180
Cc1nc(-c2cnn(C)c2)nc(N2CCN(C(=O)C3CC3)[C@H](C)C2)c1C#N = 180
Cn1cc(-c2ncc(C#N)c(N3CC4C[C@H]3CN4c3cccc(-n4cccc4)c3)n2)cn1 (stereo in doubt) = 90
CC(C)S(=O)(=O)N1C[C@@H]2CC1CN2c1nc(-c2cnn(C)c2)ncc1C#N (stereo in doubt) = 470
C[C@@H]1CN(c2nc(-c3cnn4c3CCC4)ncc2C#N)CCN1C(=O)C1CC1 = 83
C[C@@H]1CN(c2nc(-c3cnn(C)c3)nc(N3CC(C(F)(F)F)C3)c2C#N)CCN1C(=O)C1CC1 = 83
N#Cc1cnc(N2Cc3cn[nH]c3C2)nc1N1CC2C[C@H]1CN2c1cccc(F)c1 (stereo in doubt) = 86
Cc1c(-c2ncc(C#N)c(N3CCN(C(=O)C4CC4)[C@H](C)C3)n2)cnn1C = 81

query: Give measured IC50 for C[C@@H]1CN(c2nc(-c3cnn(C)c3)nc(NCC(F)(F)F)c2C#N)CCN1C(=O)C1CC1 (PI3Kdelta (Homo sapiens (Human), UniProt O00329)).
result: 8.3

query: Give measured IC50 for C[C@@H]1CN(c2nc(-c3cnn(C)c3)ncc2C#N)CCN1c1cccc([N+](=O)[O-])c1 (PI3Kdelta (Homo sapiens (Human), UniProt O00329)).
result: 78

query: Give measured IC50 for C[C@@H]1CN(c2nc(-c3cnn(C)c3)ncc2C#N)CCN1C(=O)C1CCC1(F)F (stereo partly drawn) (PI3Kdelta (Homo sapiens (Human), UniProt O00329)).
result: 550

query: Give measured IC50 for C[C@@H]1CN(c2nc(-c3cnn(C)c3)c(C#N)c(C3CC3)n2)CCN1C(=O)C1CC1 (PI3Kdelta (Homo sapiens (Human), UniProt O00329)).
result: 32

query: Give measured IC50 for Cn1cc(-c2ncc(C#N)c(N3CC4C[C@H]3CN4C(=O)C3CCC3)n2)cn1 (stereo in doubt) (PI3Kdelta (Homo sapiens (Human), UniProt O00329)).
result: 330

query: Give measured IC50 for Cn1cc(-c2ncc(C#N)c(N3C[C@@H]4C[C@H]3CN4c3cccc(F)c3)n2)cn1 (PI3Kdelta (Homo sapiens (Human), UniProt O00329)).
result: 31

query: Give measured IC50 for C[C@@H]1CN(c2nc(-c3cnn(C)c3)nc(NCC3COC3)c2C#N)CCN1C(=O)C1CC1 (PI3Kdelta (Homo sapiens (Human), UniProt O00329)).
result: 49

Numbers sourced from patent US11230547B2.
